Hello, the source for this data is PubChem BioAssay AID1963962, in case you need it.

Tested on: 967376-340-R-J2-PDC multicell spheroid viability
Experiment: Anticancer human tumor 967376-340-R-J2-PDC patient-derived colon adenocarcinoma cell line growth inhibition [PI3K]
Details: second compound 0.0316 µM; first compound 0.1 µM; active compounds read low
MEASURED_QUANTITY: viability, T/C (%)
Quick reminder: number only, in %, skip the unit.

Query: Lab request: please report viability, T/C under test system 967376-340-R-J2-PDC multicell spheroid viability for Cn1ncnc1[C@H]1c2n[nH]c(=O)c3cc(F)cc(c23)N[C@@H]1c1ccc(F)cc1 + CC(Nc1ncnc2nc[nH]c12)c1cc2cccc(Cl)c2c(=O)n1-c1ccccc1
Result: 86.7

Continuing:
Query: Lab request: please report viability, T/C under test system 967376-340-R-J2-PDC multicell spheroid viability for CC1(C)CCC(CN2CCN(c3ccc(C(=O)NS(=O)(=O)c4ccc(NCC5CCOCC5)c([N+](=O)[O-])c4)c(Oc4cnc5[nH]ccc5c4)c3)CC2)=C(c2ccc(Cl)cc2)C1 + Cc1nc(NC(=O)N2CCCC2C(N)=O)sc1-c1ccnc(C(C)(C)C(F)(F)F)c1
Result: 91.3

Query: Record: C=CC(=O)N1CCN(c2nc(=O)n(-c3c(C)ccnc3C(C)C)c3nc(-c4c(O)cccc4F)c(F)cc23)C(C)C1 (stereo unspecified) + COc1c(OCCCN2CCOCC2)ccc2c3n(c(=NC(=O)c4cnc(N)nc4)nc12)CCN3
Result: 81.7

Query: Record: CC(C)n1nc(-c2ccc3oc(N)nc3c2)c2c(N)ncnc21 + CC(Nc1ncnc2nc[nH]c12)c1cc2cccc(Cl)c2c(=O)n1-c1ccccc1
Result: 59.1

Query: Record: CC1(C)CCC(Nc2ncc(C(F)(F)F)c(-c3c[nH]c4c(P(C)(C)=O)c(C#N)ccc34)n2)CN1 (stereo unspecified) + CC(Nc1ncnc2nc[nH]c12)c1cc2cccc(Cl)c2c(=O)n1-c1ccccc1
Result: 90.2

Query: Record: CCN1CCN(Cc2ccc(Nc3ncc(F)c(-c4cc(F)c5nc(C)n(C(C)C)c5c4)n3)nc2)CC1 + Cc1nc(NC(=O)N2CCCC2C(N)=O)sc1-c1ccnc(C(C)(C)C(F)(F)F)c1
Result: 77

###

The entries below come with measured viability, T/C values attached.
Tested on: 967376-340-R-J2-PDC multicell spheroid viability
Assay: Anticancer human tumor 967376-340-R-J2-PDC cell line growth inhibition [PI3K];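 note: luminescence used as surrogate of cell viability; spheroids exposed to agents for 7 days before read-out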
Details: second compound 0.01 µM; first compound 10 µM; active compounds read low
Quick reminder: number only, in %, skip the unit.

Known results for compounds:
Query: Name the reported viability, T/C value associated with the compound C#Cc1c(F)ccc2cc(O)cc(-c3ncc4c(N5CC6CCC(C5)N6)nc(OCC56CCCN5CC(F)C6)nc4c3F)c12 (stereo not given) + CC(Nc1ccc2c(c1)OCCn1cc(N3C(=O)OCC3C(F)F)nc1-2)C(N)=O
Result: 59.6

Query: Record: C#Cc1c(F)ccc2cc(O)cc(-c3ncc4c(N5CC6CCC(C5)N6)nc(OCC56CCCN5CC(F)C6)nc4c3F)c12 (stereo not given) + COc1c(OCCCN2CCOCC2)ccc2c3n(c(=NC(=O)c4cnc(N)nc4)nc12)CCN3
Result: 62.9

Query: Record: CC(C)NCC(C(=O)N1CCN(c2ncnc3c2C(C)CC3O)CC1)c1ccc(Cl)cc1 (stereo not given) + COc1c(OCCCN2CCOCC2)ccc2c3n(c(=NC(=O)c4cnc(N)nc4)nc12)CCN3
Result: 75.5

Query: Record: CC1(C)CCC(Nc2ncc(C(F)(F)F)c(-c3c[nH]c4c(P(C)(C)=O)c(C#N)ccc34)n2)CN1 (stereo not given) + CC(Nc1ccc2c(c1)OCCn1cc(N3C(=O)OCC3C(F)F)nc1-2)C(N)=O
Result: 49

// below: viability, T/C requested for another compound
Query: Name the reported viability, T/C value associated with the compound Cn1ncc(Cl)c1-c1cc(C(=O)NC(CN)Cc2cccc(F)c2)sc1Cl (stereo not given) + COc1c(OCCCN2CCOCC2)ccc2c3n(c(=NC(=O)c4cnc(N)nc4)nc12)CCN3
Result: 64.7

###

Tested on: 967376-340-R-J2-PDC multicell spheroid viability
Assay: Anticancer human tumor 967376-340-R-J2-PDC cell line growth inhibition [PI3K];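 note: luminescence used as surrogate of cell viability; spheroids exposed to agents for 7 days before read-out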
Conditions: second compound 0.0316 µM; first compound 0.1 µM; active compounds read low
# if measured viability, T/C < 80%: MET  # else: NOT MET

Query: Determine if CNC(=O)c1ccc(N2C(=S)N(c3ccc(C#N)c(C(F)(F)F)c3)C(=O)C2(C)C)cc1F + COc1c(OCCCN2CCOCC2)ccc2c3n(c(=NC(=O)c4cnc(N)nc4)nc12)CCN3 shows viability, T/C strictly lower than 80%.
Result: MET

Continuing:
Query: Determine if CC(Cn1ccc(-c2ccc(C#N)c(Cl)c2)n1)NC(=O)c1cc(C(C)O)[nH]n1 (stereo not given) + CC(Nc1ccc2c(c1)OCCn1cc(N3C(=O)OCC3C(F)F)nc1-2)C(N)=O shows viability, T/C strictly lower than 80%.
Result: NOT MET

Query: Record: CC(C)n1nc(-c2ccc3oc(N)nc3c2)c2c(N)ncnc21 + CC(Nc1ccc2c(c1)OCCn1cc(N3C(=O)OCC3C(F)F)nc1-2)C(N)=O
Result: MET

Query: Record: CC(Cn1ccc(-c2ccc(C#N)c(Cl)c2)n1)NC(=O)c1cc(C(C)O)[nH]n1 (stereo not given) + Cc1nc(NC(=O)N2CCCC2C(N)=O)sc1-c1ccnc(C(C)(C)C(F)(F)F)c1
Result: NOT MET

Query: Record: C#Cc1c(F)ccc2cc(O)cc(-c3ncc4c(N5CC6CCC(C5)N6)nc(OCC56CCCN5CC(F)C6)nc4c3F)c12 (stereo not given) + COc1c(OCCCN2CCOCC2)ccc2c3n(c(=NC(=O)c4cnc(N)nc4)nc12)CCN3
Result: NOT MET

###

System: 967376-340-R-J2-PDC multicell spheroid viability
Assay: Anticancer human tumor 967376-340-R-J2-PDC cell line growth inhibition [PI3K];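 note: luminescence used as surrogate of cell viability; spheroids exposed to agents for 7 days before read-out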
Details: second compound 0.316 µM; first compound 3.16 µM; active compounds read low
# if measured viability, T/C < 80%: Condition met  # else: Condition not met

Here's what some known entries look like.
Query: Determine if CC(C)NCC(C(=O)N1CCN(c2ncnc3c2C(C)CC3O)CC1)c1ccc(Cl)cc1 (stereo not given) + CC(Nc1ncnc2nc[nH]c12)c1cc2cccc(Cl)c2c(=O)n1-c1ccccc1 shows viability, T/C strictly lower than 80%.
Result: Condition not met

Query: Record: CNC(=O)c1ccc(N2C(=S)N(c3ccc(C#N)c(C(F)(F)F)c3)C(=O)C2(C)C)cc1F + Cc1nc(NC(=O)N2CCCC2C(N)=O)sc1-c1ccnc(C(C)(C)C(F)(F)F)c1
Result: Condition not met

Query: Record: CC(C)NCC(C(=O)N1CCN(c2ncnc3c2C(C)CC3O)CC1)c1ccc(Cl)cc1 (stereo not given) + Cc1nc(NC(=O)N2CCCC2C(N)=O)sc1-c1ccnc(C(C)(C)C(F)(F)F)c1
Result: Condition not met

Query: Record: CNC(=O)c1ccc(N2C(=S)N(c3ccc(C#N)c(C(F)(F)F)c3)C(=O)C2(C)C)cc1F + CC(Nc1ccc2c(c1)OCCn1cc(N3C(=O)OCC3C(F)F)nc1-2)C(N)=O
Result: Condition met

Query: Record: CC1(C)CCC(CN2CCN(c3ccc(C(=O)NS(=O)(=O)c4ccc(NCC5CCOCC5)c([N+](=O)[O-])c4)c(Oc4cnc5[nH]ccc5c4)c3)CC2)=C(c2ccc(Cl)cc2)C1 + Cc1nc(NC(=O)N2CCCC2C(N)=O)sc1-c1ccnc(C(C)(C)C(F)(F)F)c1
Result: Condition met

Continuing:
Query: Determine if CC1(C)CCC(CN2CCN(c3ccc(C(=O)NS(=O)(=O)c4ccc(NCC5CCOCC5)c([N+](=O)[O-])c4)c(Oc4cnc5[nH]ccc5c4)c3)CC2)=C(c2ccc(Cl)cc2)C1 + CC(Nc1ncnc2nc[nH]c12)c1cc2cccc(Cl)c2c(=O)n1-c1ccccc1 shows viability, T/C strictly lower than 80%.
Result: Condition not met

Query: Record: C#Cc1c(F)ccc2cc(O)cc(-c3ncc4c(N5CC6CCC(C5)N6)nc(OCC56CCCN5CC(F)C6)nc4c3F)c12 (stereo not given) + CC(Nc1ccc2c(c1)OCCn1cc(N3C(=O)OCC3C(F)F)nc1-2)C(N)=O
Result: Condition met

Query: Record: Cn1ncc(Cl)c1-c1cc(C(=O)NC(CN)Cc2cccc(F)c2)sc1Cl (stereo not given) + Cc1nc(NC(=O)N2CCCC2C(N)=O)sc1-c1ccnc(C(C)(C)C(F)(F)F)c1
Result: Condition met

Query: Record: Cn1ncc(Cl)c1-c1cc(C(=O)NC(CN)Cc2cccc(F)c2)sc1Cl (stereo not given) + COc1c(OCCCN2CCOCC2)ccc2c3n(c(=NC(=O)c4cnc(N)nc4)nc12)CCN3
Result: Condition met

Query: Record: CNC(=O)c1ccc(N2C(=S)N(c3ccc(C#N)c(C(F)(F)F)c3)C(=O)C2(C)C)cc1F + CC(Nc1ncnc2nc[nH]c12)c1cc2cccc(Cl)c2c(=O)n1-c1ccccc1
Result: Condition not met
